Parameter: pIC50. Scope: all listed entries.
targetUnderTest: Axl (Homo sapiens)
Construct: endogenous in cells; host or cells: HeLa cells
Sequence (P30530 26-894): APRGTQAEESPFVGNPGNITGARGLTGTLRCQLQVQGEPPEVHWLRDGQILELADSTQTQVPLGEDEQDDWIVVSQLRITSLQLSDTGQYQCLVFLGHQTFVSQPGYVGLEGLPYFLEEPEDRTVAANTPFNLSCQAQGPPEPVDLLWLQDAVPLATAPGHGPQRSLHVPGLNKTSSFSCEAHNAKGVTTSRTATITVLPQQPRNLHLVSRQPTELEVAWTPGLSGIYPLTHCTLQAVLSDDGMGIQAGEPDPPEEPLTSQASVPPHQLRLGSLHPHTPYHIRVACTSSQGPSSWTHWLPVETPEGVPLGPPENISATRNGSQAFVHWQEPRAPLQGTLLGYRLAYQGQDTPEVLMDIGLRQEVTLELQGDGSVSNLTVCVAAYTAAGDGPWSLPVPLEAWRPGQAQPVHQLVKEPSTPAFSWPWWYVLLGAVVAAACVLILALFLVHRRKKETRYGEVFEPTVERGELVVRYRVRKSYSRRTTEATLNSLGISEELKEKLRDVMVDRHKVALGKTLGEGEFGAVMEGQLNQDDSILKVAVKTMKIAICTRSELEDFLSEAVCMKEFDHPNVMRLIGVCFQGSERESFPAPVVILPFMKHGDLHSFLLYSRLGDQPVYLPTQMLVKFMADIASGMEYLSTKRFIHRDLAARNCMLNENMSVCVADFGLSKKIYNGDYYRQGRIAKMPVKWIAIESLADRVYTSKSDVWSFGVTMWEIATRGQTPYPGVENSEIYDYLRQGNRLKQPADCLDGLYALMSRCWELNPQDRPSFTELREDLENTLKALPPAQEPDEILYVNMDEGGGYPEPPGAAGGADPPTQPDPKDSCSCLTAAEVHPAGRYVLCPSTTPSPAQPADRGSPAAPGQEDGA
experimentalDetails: Phospho-Akt in-cell Western assay (inhibition of Axl activity)
Type: cell-based
assaySetup: Table 5; Hela cells, Axl antibody cross-linking stimulation, phospho-Akt chemiluminescence
Description: The compounds of the invention were tested in the following assay for their ability to inhibit Axl activity. Phospho-Akt in-Cell Western Assay […]
pIC50: −log10 of the molar value.

Field: example entries. Status: answers known.
compound | pIC50
Cc1cccc(C(=O)n2nc(Nc3ccc4c(c3)NC(=O)C(F)(F)O4)nc2N)c1 | < 4.70
CS(=O)(=O)N1CCC(Nc2nc(N)n(C(=O)c3c(F)cccc3F)n2)CC1 | < 4.70
CCOC(=O)c1cc2cc(Nc3nc(N)n(C(=O)c4cccc(OC(C)C)c4)n3)ccc2o1 | < 4.70

Entry under test: Cc1cccc(C(=O)n2nc(Nc3ccc4[nH]c(C)cc4c3)nc2N)c1 . Its pIC50 was 5.00 to 6.00

// pIC50 value for Cc1cccc(C(=O)n2nc(Nc3ccc4cn[nH]c4c3)nc2N)c1 : 5.00 to 6.00

For Cc1cccc(C(=O)n2nc(Nc3ccc4ncsc4c3)nc2N)c1 the compound record lists pIC50 as 5.00 to 6.00

Just for reference, patent US8389557B2 is where these values come from.
